Each entry below carries its reported CC50.
Assay: Cytotoxicity in noninfected HFFs (MTT)
Type: cell-based, human
Settings: human

{"COMPOUND": "C[C@H]1O[C@@H](O[C@H]2[C@@H](O)C[C@H](O[C@H]3[C@@H](O)C[C@H](O[C@H]4CC[C@@]5(C)[C@H](CC[C@@H]6[C@@H]5CC[C@]5(C)[C@@H](C7=CC(=O)OC7)CC[C@]65O)C4)O[C@@H]3C)O[C@@H]2C)C[C@H](O)[C@@H]1O [Digitoxin, reference compound]", "CC50 / nM": 2810}
{"COMPOUND": "CC1O[C@@H](O[C@H]2CCC3(C)C(CC[C@@H]4C3CCC3(C)[C@@H](C5=CC(=O)OC5)CC[C@]43O)C2)C(O)C(O)[C@H]1O (stereo partly drawn) [Compound 1.2, digitoxigenin α-L-rhamnopyranoside]", "CC50 / nM": 664}
{"COMPOUND": "CC1O[C@@H](O[C@H]2CCC3(C)C(CC[C@@H]4C3CCC3(C)[C@@H](C5=CC(=O)OC5)CC[C@]43O)C2)CC[C@H]1O (stereo partly drawn) [Compound 1.5, digitoxigenin α-L-amecitopyranoside]", "CC50 / nM": 655}
